Biological target: EBP-Ig (Homo sapiens)
Construct: one encoding amino acids 1-225 of the extracellular domain of the mature hEPOR; made in house
Sequence (P19235 with tags, fused parts or gaps limits assumed): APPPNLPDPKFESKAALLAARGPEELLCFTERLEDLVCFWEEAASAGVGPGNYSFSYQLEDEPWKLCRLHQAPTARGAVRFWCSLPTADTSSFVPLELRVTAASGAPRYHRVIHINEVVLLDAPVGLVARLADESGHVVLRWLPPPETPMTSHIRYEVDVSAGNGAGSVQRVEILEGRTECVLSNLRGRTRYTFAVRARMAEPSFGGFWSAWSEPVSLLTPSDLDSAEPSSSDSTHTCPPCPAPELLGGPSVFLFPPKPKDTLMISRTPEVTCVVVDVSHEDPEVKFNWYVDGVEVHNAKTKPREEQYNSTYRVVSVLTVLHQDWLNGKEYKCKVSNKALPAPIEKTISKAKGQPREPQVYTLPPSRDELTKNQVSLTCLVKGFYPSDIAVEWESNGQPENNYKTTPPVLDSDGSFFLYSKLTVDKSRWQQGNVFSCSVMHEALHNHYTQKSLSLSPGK
Assay: Fluorescence polarization competitive binding assay with fluorescein-RWJ 61718
Details: EBP-Ig (3S mutant) 0.025 mg/ml, fluorescein-RWJ 61718 2.5 μM; read-out: FP/EBP-Ig IC50
Bridge positions count the residues as written; N and C are the ends. Square brackets hold non-standard residues; d marks the D form. Ends that are not written are not given here. Tyr(3,5-Br2) = N[C@@H](Cc1cc(Br)c(O)c(Br)c1)C(=O)O
For each entry below, report its IC50 value.
Numbers only, in nM.

Worked cases, answers included:
GGLYACHMGPMTWVCQPLRG (GGKYACHMGPMTWVCQPKRG) [RWJ 61718]; 350
GGTYSCHFGPLTWVCKPQGG [RWJ 61233]; 500

Okay, now this sequence:
Prompt line: Please report the recorded IC50 for GGTXSCHFGPLTWVCKPQGG (GGT[Tyr(3,5-Br2)]SCHFGPLTWVCKPQGG-NH2; disulfide 6-15 (inferred)) [RWJ 62021, X = 3,5-dibromo-tyr] .
Response line: 5000
